Entry source: the supplement of paper PMC10065799

Listed sequences paired with reported phosphorylation enrichment
# SYSTEM: Jak2 (UniProt O60674)
# Sequence (O60674 whole entry, looked up): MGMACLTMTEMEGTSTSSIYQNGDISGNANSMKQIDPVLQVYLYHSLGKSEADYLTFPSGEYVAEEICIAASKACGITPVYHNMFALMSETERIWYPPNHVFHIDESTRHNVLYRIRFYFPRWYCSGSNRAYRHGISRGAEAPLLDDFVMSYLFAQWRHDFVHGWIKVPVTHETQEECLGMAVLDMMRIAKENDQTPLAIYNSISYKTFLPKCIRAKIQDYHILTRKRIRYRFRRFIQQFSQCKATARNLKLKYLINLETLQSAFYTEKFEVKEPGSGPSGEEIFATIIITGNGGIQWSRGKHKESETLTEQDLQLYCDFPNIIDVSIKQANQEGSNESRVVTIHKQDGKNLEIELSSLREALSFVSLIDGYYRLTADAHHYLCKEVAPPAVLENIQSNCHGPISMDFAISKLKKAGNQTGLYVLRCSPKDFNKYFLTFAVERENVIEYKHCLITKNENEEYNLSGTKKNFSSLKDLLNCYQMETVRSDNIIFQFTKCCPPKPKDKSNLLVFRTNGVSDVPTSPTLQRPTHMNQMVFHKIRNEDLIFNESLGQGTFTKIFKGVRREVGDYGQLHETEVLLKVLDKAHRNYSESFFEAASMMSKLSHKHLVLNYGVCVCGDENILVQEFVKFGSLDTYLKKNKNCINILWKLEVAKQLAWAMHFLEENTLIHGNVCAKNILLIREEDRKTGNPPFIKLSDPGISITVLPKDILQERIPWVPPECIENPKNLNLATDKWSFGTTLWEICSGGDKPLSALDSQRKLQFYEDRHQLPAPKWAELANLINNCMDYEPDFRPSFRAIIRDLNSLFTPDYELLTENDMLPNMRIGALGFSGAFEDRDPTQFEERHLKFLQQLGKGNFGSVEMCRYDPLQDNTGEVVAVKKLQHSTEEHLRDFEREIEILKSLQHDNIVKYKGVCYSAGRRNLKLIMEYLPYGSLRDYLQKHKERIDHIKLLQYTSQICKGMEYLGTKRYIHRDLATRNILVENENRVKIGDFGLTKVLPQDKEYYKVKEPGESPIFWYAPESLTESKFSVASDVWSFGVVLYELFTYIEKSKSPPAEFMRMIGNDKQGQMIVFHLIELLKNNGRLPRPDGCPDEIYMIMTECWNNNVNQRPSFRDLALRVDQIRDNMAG
# MEASUREMENT_NOTES: phosphorylation enrichment, bacterial display (enrichment ratio); higher = better substrate or ligand; peptides without Tyr show the background;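 further: 11-residue human phosphosite peptides and single-mutation variants displayed on the E. coli surface, counted by deep sequencing, each peptide's frequency after selection divided by its frequency in the unselected input library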;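 further: frequency after pTyr selection over input frequency; kinase dosed for 20-30% of maximal phosphorylation in three min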
Number only, no unit.

Observe how each entry below is paired with its result.
# SEQUENCE, phosphorylation enrichment
data = [
    ("DPHQQYFIAMD [TBX15_Y159_YF]", 1.06),
    ("CRAVKYLQMVD [AVPR2_Y117_G122D]", 0.675),
    ("ATHSRYRLNDF [CLDN14_Y233_G232R_YF]", 0.413),
]

Lookup: State its phosphorylation enrichment: NSRFTYKLEVK [USH2A_Y3747_YF]
Found: 1.25

Lookup: Please indicate phosphorylation enrichment recorded for GVIRHYVVCST [BTK_Y334]
Found: 1.12

Lookup: Specify reported phosphorylation enrichment for the sequence shown: KKFFSYAWPFF [BRDT_Y291_H288Y_YF]
Found: 0.92

Lookup: Please report phosphorylation enrichment for the following sequence: PYTDPYYDYEI [ZC3H18_Y371_A368T]
Found: 1.88
